assay: Single-dose plasma pharmacokinetics of raltitrexed in cancer patients (radioimmunoassay, three-compartment model); type: in vivo, human; conditions: both sexes, human, in vivo, AUC0-tldc, adjusted geometric least squares mean
ENDPOINT LABEL: AUC (µg·h/mL)
Number in µg·h/mL, nothing else.

[Q] Let me know recorded AUC for Cc1nc2ccc(CN(C)c3ccc(C(=O)N[C@@H](CCC(=O)O)C(=O)O)s3)cc2c(=O)[nH]1 , thanks.
[A] 2.45

---

assay: Single-dose plasma pharmacokinetics of raltitrexed in cancer patients (radioimmunoassay, three-compartment model); format: in vivo, human; conditions: both sexes, human, in vivo, t1/2 gamma (terminal half-life), adjusted least squares mean
ENDPOINT LABEL: half-life (days)
Number in days, nothing else.

[Q] Let me know recorded half-life for Cc1nc2ccc(CN(C)c3ccc(C(=O)N[C@@H](CCC(=O)O)C(=O)O)s3)cc2c(=O)[nH]1 [raltitrexed] , thanks.
[A] 11.3
